Tested on: Cyp1a2 mRNA in liver
Assay: Cyp1a2 gene expression in liver (real-time PCR)
Assay type: in vivo, female C57BL/6 mice
Settings: dose metric Syst plasma; 3 days after single oral dose
# BMR20TCDD Liver Cyp1a2 mRNA listing for each entry below
measurement-label: BMR20TCDD Liver Cyp1a2 mRNA

INSERT INTO results (molecule, result) VALUES
  ('Clc1cc2c(cc1Cl)Oc1c(cc(Cl)c(Cl)c1Cl)O2', '2.36 ng/g lipid'),
  ('Clc1cc2oc3c(Cl)c(Cl)c(Cl)cc3c2cc1Cl', '8.01 ng/g lipid'),
  ('Clc1cc2c(cc1Cl)Oc1cc(Cl)c(Cl)cc1O2 [TCDD, 2,3,7,8-tetrachlorodibenzodioxin, reference compound]', '1.85 ng/g lipid'),
  ('Clc1ccc(-c2cc(Cl)c(Cl)cc2Cl)cc1Cl', '103,230 ng/g lipid'),
  ('Clc1ccc(-c2cc(Cl)c(Cl)c(Cl)c2)cc1Cl', '135 ng/g lipid'),
  ('Clc1ccc(-c2cc(Cl)c(Cl)c(Cl)c2Cl)cc1Cl', '60,702 ng/g lipid');
